Give shrunken log2 fold change for every item shown.
- Tested on: Escherichia coli TOP10
- Assay protocol: shrunken log2 fold change of peptide-encoding DNA abundance (4.5 h post-induction vs induction); higher = less antimicrobial activity (less host growth inhibition)
- Cond: time post-induction: 4.5 h; library: site-saturation at positions 5, 18, 19, 20
One number for each entry.

RRIRRRPPRLPRPRPRPVDIPRP = -0.0798
RRIRYRPPRLPRPRPRPDEMPRP = 0.0412
RRIRNRPPRLPRPRPRPYQKPRP = -0.0633
RRIRFRPPRLPRPRPRPYIKPRP = -1.28
RRIRKRPPRLPRPRPRPHGNPRP = -0.0306
RRIRDRPPRLPRPRPRPMFWPRP = 0.0751

// each listed sequence needs a value for shrunken log2 fold change
1. RRIRNRPPRLPRPRPRPAQKPRP
2. RRIRARPPRLPRPRPRPPCSPRP
3. RRIRLRPPRLPRPRPRPAAIPRP

Data returned:
[0.918, 0.752, -0.0299]

###

- Tested on: Escherichia coli TOP10
- Assay protocol: shrunken log2 fold change of peptide-encoding DNA abundance (4.5 h post-induction vs induction); higher = less antimicrobial activity (less host growth inhibition)
- Cond: time post-induction: 4.5 h; library: site-saturation at positions 5, 18, 19, 20
Give class 1 when the value for shrunken log2 fold change is at least 0.04. Give class 0 when it is less.

# example entries with known answers
RRIRARPPRLPRPRPRPINCPRP = class 0
RRIRQRPPRLPRPRPRPINCPRP = class 0

Data request: Item RRIRARPPRLPRPRPRPIDEPRP with shrunken log2 fold change of 0.04 or above?
Data returned: class 1

Data request: Lookup RRIRFRPPRLPRPRPRPWCIPRP
Data returned: class 0

Data request: Entry to check: RRIRMRPPRLPRPRPRPQQNPRP
Data returned: class 1

Data request: And the next one, RRIRNRPPRLPRPRPRPYDNPRP ?
Data returned: class 0

Data request: Here is the next sequence: RRIRMRPPRLPRPRPRPTQQPRP
Data returned: class 1

Data request: Now try RRIRPRPPRLPRPRPRPIHCPRP .
Data returned: class 0

Data request: Try RRIRGRPPRLPRPRPRPKQMPRP next.
Data returned: class 1

Data request: Continue with RRIRWRPPRLPRPRPRPVHWPRP
Data returned: class 1

###

Please go through the items and note down their shrunken log2 fold change.
- Tested on: Escherichia coli TOP10
- Assay protocol: shrunken log2 fold change of peptide-encoding DNA abundance (4.5 h post-induction vs induction); higher = less antimicrobial activity (less host growth inhibition)
- Cond: time post-induction: 4.5 h; library: site-saturation at positions 5, 18, 19, 20
Numbers only.

Some sequences with known shrunken log2 fold change results, for comparison:
RRIRIRPPRLPRPRPRPYRIPRP = -0.485
RRIRERPPRLPRPRPRPSQHPRP = -0.49
RRIRCRPPRLPRPRPRPLSYPRP = -1.29
RRIRPRPPRLPRPRPRPSRPPRP = 0.133
RRIRFRPPRLPRPRPRPFQEPRP = -0.00353
RRIRNRPPRLPRPRPRPDDKPRP = -0.0189

# batch: return shrunken log2 fold change for each of the 3 sequences below
1. RRIRKRPPRLPRPRPRPMMAPRP
2. RRIRCRPPRLPRPRPRPKSWPRP
3. RRIRCRPPRLPRPRPRPKIIPRP

Data returned:
[0.255, 0.323, -0.932]

Give shrunken log2 fold change for each of the items listed below.
1. RRIRVRPPRLPRPRPRPFMVPRP
2. RRIRNRPPRLPRPRPRPVAPPRP
3. RRIRHRPPRLPRPRPRPRADPRP
4. RRIRWRPPRLPRPRPRPDCCPRP
5. RRIRHRPPRLPRPRPRPSLCPRP
6. RRIRIRPPRLPRPRPRPKVDPRP

Data returned:
-0.43
0.153
0.185
0.777
-0.0468
-0.468

Items follow; give shrunken log2 fold change for each.
1. RRIRVRPPRLPRPRPRPGVEPRP
2. RRIRWRPPRLPRPRPRPHVMPRP
3. RRIRKRPPRLPRPRPRPCDQPRP
4. RRIRLRPPRLPRPRPRPPVKPRP
5. RRIRNRPPRLPRPRPRPSFYPRP
6. RRIRGRPPRLPRPRPRPGNPPRP
7. RRIRIRPPRLPRPRPRPDRIPRP
8. RRIRERPPRLPRPRPRPVKPPRP

Data returned:
0.243
-0.254
-0.0132
-0.0732
-0.658
0.134
0.0297
-0.102

###

- Test system: Escherichia coli TOP10
- Assay protocol: shrunken log2 fold change of peptide-encoding DNA abundance (4.5 h post-induction vs induction); higher = less antimicrobial activity (less host growth inhibition)
- Cond: time post-induction: 4.5 h; library: site-saturation at positions 5, 18, 19, 20
Property measured: shrunken log2 fold change
Give bare numbers.

RRIRSRPPRLPRPRPRPIDRPRP = 0.0178
RRIRSRPPRLPRPRPRPVLCPRP = -0.00306
RRIRLRPPRLPRPRPRPTSMPRP = -0.154
RRIRRRPPRLPRPRPRPRMSPRP = 0.938
RRIRWRPPRLPRPRPRPDSDPRP = 0.0473
RRIRARPPRLPRPRPRPWENPRP = 0.0143
RRIRMRPPRLPRPRPRPPFVPRP = 0.267

Let's switch to this sequence now.
Data request: I'm curious: which shrunken log2 fold change was measured for RRIRQRPPRLPRPRPRPAVRPRP tested on Escherichia coli TOP10?
Data returned: -0.0154

###

- Test system: Escherichia coli TOP10
- Assay protocol: shrunken log2 fold change of peptide-encoding DNA abundance (4.5 h post-induction vs induction); higher = less antimicrobial activity (less host growth inhibition)
- Cond: time post-induction: 4.5 h; library: site-saturation at positions 5, 18, 19, 20
Each entry falls in a class defined on shrunken log2 fold change; the bands are low (below -0.2), middle (-0.2 to below 0.1), high (0.1 or more)

Examples with answers:
RRIRLRPPRLPRPRPRPCVIPRP = low
RRIRNRPPRLPRPRPRPMWRPRP = middle
RRIRHRPPRLPRPRPRPPLFPRP = high
RRIRARPPRLPRPRPRPGMMPRP = high
RRIRGRPPRLPRPRPRPDANPRP = high
RRIRLRPPRLPRPRPRPLNVPRP = middle
RRIRMRPPRLPRPRPRPTCPPRP = high
RRIRDRPPRLPRPRPRPYKWPRP = low

Data request: Textbook exercise: identify the category of the sequence given here, RRIRRRPPRLPRPRPRPDNVPRP , according to its measured value.
Data returned: low

Data request: What do you have for RRIRDRPPRLPRPRPRPRQDPRP ?
Data returned: high

Data request: Entry to check: RRIRNRPPRLPRPRPRPDNTPRP
Data returned: low

Data request: // next record RRIRHRPPRLPRPRPRPMWCPRP
Data returned: middle

###

- Test system: Escherichia coli TOP10;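 note: peptides expressed intracellularly from a pBAD plasmid library in pooled LB shake-flask culture, induced with 0.3% L-arabinose, DNA abundance read by NGS, three biological replicates, DESeq2 with apeglm shrinkage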
- Assay protocol: shrunken log2 fold change of peptide-encoding DNA abundance (4.5 h post-induction vs induction); higher = less antimicrobial activity (less host growth inhibition)
- Cond: time post-induction: 4.5 h; library: site-saturation at positions 5, 18, 19, 20
Can you tell me shrunken log2 fold change for the items I'm about to list?
Give bare numbers.

RRIRYRPPRLPRPRPRPKAFPRP = 0.0171
RRIRKRPPRLPRPRPRPQSSPRP = -0.0228
RRIRCRPPRLPRPRPRPGNGPRP = 0.217
RRIRVRPPRLPRPRPRPVGPPRP = 0.0843
RRIRTRPPRLPRPRPRPGYLPRP = 0.0359

# map each sequence to its shrunken log2 fold change
1. RRIRQRPPRLPRPRPRPTREPRP
2. RRIRIRPPRLPRPRPRPTRNPRP
3. RRIRCRPPRLPRPRPRPDNFPRP
4. RRIRQRPPRLPRPRPRPWLNPRP
5. RRIRIRPPRLPRPRPRPQQVPRP
6. RRIRFRPPRLPRPRPRPDVVPRP
7. RRIRCRPPRLPRPRPRPYWIPRP
8. RRIRMRPPRLPRPRPRPDFNPRP

Data returned:
1: -0.081; 2: -0.268; 3: -0.489; 4: -0.0662; 5: 0.00944; 6: -0.181; 7: -1.17; 8: 0.0763

Quick batch: shrunken log2 fold change for everything below.
1. RRIRLRPPRLPRPRPRPPWSPRP
2. RRIRERPPRLPRPRPRPGESPRP
3. RRIRGRPPRLPRPRPRPCSWPRP
4. RRIRSRPPRLPRPRPRPTAHPRP

Data returned:
1. 0.259
2. -0.0304
3. 0.19
4. 0.284

Report shrunken log2 fold change for each item below.
1. RRIRYRPPRLPRPRPRPMICPRP
2. RRIRPRPPRLPRPRPRPCFTPRP
3. RRIRKRPPRLPRPRPRPDWKPRP
4. RRIRVRPPRLPRPRPRPSDEPRP
5. RRIRRRPPRLPRPRPRPFGRPRP
6. RRIRFRPPRLPRPRPRPRYMPRP
7. RRIRCRPPRLPRPRPRPKMWPRP

Data returned:
[-0.0731, -0.307, -0.0149, -0.463, 0.114, -0.689, 1.22]

Would you be so kind as to report shrunken log2 fold change for each listed record?
1. RRIRHRPPRLPRPRPRPRANPRP
2. RRIRWRPPRLPRPRPRPPFNPRP
3. RRIRNRPPRLPRPRPRPQTWPRP
4. RRIRHRPPRLPRPRPRPPMCPRP
5. RRIRKRPPRLPRPRPRPFVTPRP

Data returned:
0.177
0.31
-0.183
-0.00483
-0.0435

Please supply shrunken log2 fold change for each of the following items, keeping them in order.
1. RRIRLRPPRLPRPRPRPDDIPRP
2. RRIRQRPPRLPRPRPRPENAPRP
3. RRIRNRPPRLPRPRPRPYISPRP

Data returned:
[-0.0521, 0.242, 0.00753]

Value sought for every listed sequence: shrunken log2 fold change.
1. RRIRLRPPRLPRPRPRPPMTPRP
2. RRIRQRPPRLPRPRPRPPICPRP
3. RRIRYRPPRLPRPRPRPKWCPRP
4. RRIRFRPPRLPRPRPRPAYPPRP
5. RRIRERPPRLPRPRPRPNFVPRP
6. RRIRNRPPRLPRPRPRPIKGPRP

Data returned:
[0.907, 0.0388, -0.00875, -0.412, 0.0109, -0.104]

// each sequence listed below needs its shrunken log2 fold change
1. RRIRQRPPRLPRPRPRPCIPPRP
2. RRIRQRPPRLPRPRPRPDSVPRP
3. RRIRERPPRLPRPRPRPDLYPRP
4. RRIRCRPPRLPRPRPRPHCFPRP
5. RRIRLRPPRLPRPRPRPEPAPRP

Data returned:
1: 0.00582; 2: -0.0518; 3: -0.0156; 4: -0.429; 5: 0.0966

List shrunken log2 fold change for every entry below, keeping the order given.
1. RRIRKRPPRLPRPRPRPRTPPRP
2. RRIRNRPPRLPRPRPRPAWLPRP
3. RRIRDRPPRLPRPRPRPTMFPRP
4. RRIRHRPPRLPRPRPRPNRTPRP
5. RRIRMRPPRLPRPRPRPVEHPRP

Data returned:
1: 0.714; 2: 0.276; 3: 0.0915; 4: 0.031; 5: -0.00663
